Listed below: Hb values for each entry.
Organism: Rattus norvegicus
Assay: Open TG-GATES - Regimen: Daily Repeat
Format: toxicity, organism-based, Sprague-Dawley
Design: regimen Daily Repeat, gender Male, age 6 weeks
Conditions: in vivo, po, 0 mg/kg, […], tissue Blood, route gavage, dose level Control, time 28 day
The number alone won't do; follow it with the unit.

# molecule, result
measured = [
    ("O=C(O)COc1nn(Cc2ccccc2)c2ccccc12", "15.5 g/dL"),
    ("CC(C)Cc1ccc(C(C)C(=O)O)cc1 (stereo not drawn)", "14.8 g/dL"),
    ("CCN(CC)N=O", "15.5 g/dL"),
    ("CC[C@@H](CO)NCCN[C@@H](CC)CO", "14.7 g/dL"),
    ("CC(=O)N1CCN(c2ccc(OCC3COC(Cn4ccnc4)(c4ccc(Cl)cc4Cl)O3)cc2)CC1 (stereo not drawn)", "14.9 g/dL"),
]

Value of Hb reported for the molecule CC(N)=O [ACETAMIDE] is 13.5 g/dL

Briefly, Hb measured for CC(CCc1ccccc1)NCC(O)c1ccc(O)c(C(N)=O)c1 (stereo not drawn) : 15.1 g/dL

Documented Hb of `CC(=O)Nc1ccc2c(c1)Cc1ccccc1-2` : 14.9 g/dL
